Each recorded value in this set is attributed to the supplement of paper PMC10567573.

Exercise: for every item that follows, state its recorded protein stability index.
B1: CSNK1G1 (parent)
chain: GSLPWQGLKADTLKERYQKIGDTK

variants of: B1; experiment: protein stability index of a GFP-peptide fusion (GPS, HEK-293T) (PSI 1-6); higher = more stable; details: c terminus: a fixed tail appended;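 note: lentivirally expressed fusions sorted by FACS into six bins by GFP to DsRed ratio, PSI derived from sequencing read proportions per bin multiplied by bin number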
Numbers only.

Reference set, count: 3
L8V ... 4.66
I20C ... 4.35
R16M ... 4.11

Below is a list of variants. For each, state its recorded protein stability index.
1. W5F
2. T23H
3. S2I
4. A10F
5. K19E
6. D11P

[4.75, 4.08, 3.47, 3.5, 4.45, 4.11]

For every item below, please supply its protein stability index.
1. L13E
2. K24P
3. S2E

[4.66, 4.2, 4.6]

What value of protein stability index has been recorded for this entry: "Y17A"
4.98
